# System: Utrophin A promoter linked to a luciferase reporter gene (H2K/mdx/Utro A reporter cell line)
# Experiment Summary: Luciferase reporter assay (murine H2K cells)
# Format: cell-based
# Reported Conditions: Mus musculus; Table 2; murine H2K mdx myoblasts, compound final concentration 10 μM, 48 hrs; read-out: Activity (luciferase reporter assay, relative to control)
Recorded Metric: activity at 10 µM

>  <Compound Structure>
Cc1ccc(-n2nc3ccc(N)cc3n2)cc1C

>  <activity at 10 µM>
< 200%

$$$$
>  <Compound Structure>
CCOc1ccc(-n2nc3cc(C)c(N)cc3n2)cc1

>  <activity at 10 µM>
201 to 300%

$$$$
>  <Compound Structure>
CCc1ccc(-n2nc3ccc(N)cc3n2)cc1

>  <activity at 10 µM>
201 to 300%

$$$$
>  <Compound Structure>
CC(=O)Nc1ccc2nn(-c3ccc(F)cc3)nc2c1

>  <activity at 10 µM>
201 to 300%

$$$$
>  <Compound Structure>
COc1ccc(-n2nc3cc(C)c(NC(C)=O)cc3n2)cc1

>  <activity at 10 µM>
< 200%

$$$$

Take each entry in turn and give its activity at 10 µM.
1. CC(=O)Nc1cc2nn(-c3ccccc3)nc2cc1C
2. Cc1ccc(-n2nc3cc(C)c(N)cc3n2)cc1

201 to 300%
201 to 300%
